Hi there, I'd appreciate the recorded pEC50 for every entry that follows.
- studyTarget: full-length B-Catenin (Uniprot ID P35222) (Homo sapiens)
- Construct: 65 nM full-length B-Catenin (Uniprot ID P35222)
- Sequence (P35222 whole entry): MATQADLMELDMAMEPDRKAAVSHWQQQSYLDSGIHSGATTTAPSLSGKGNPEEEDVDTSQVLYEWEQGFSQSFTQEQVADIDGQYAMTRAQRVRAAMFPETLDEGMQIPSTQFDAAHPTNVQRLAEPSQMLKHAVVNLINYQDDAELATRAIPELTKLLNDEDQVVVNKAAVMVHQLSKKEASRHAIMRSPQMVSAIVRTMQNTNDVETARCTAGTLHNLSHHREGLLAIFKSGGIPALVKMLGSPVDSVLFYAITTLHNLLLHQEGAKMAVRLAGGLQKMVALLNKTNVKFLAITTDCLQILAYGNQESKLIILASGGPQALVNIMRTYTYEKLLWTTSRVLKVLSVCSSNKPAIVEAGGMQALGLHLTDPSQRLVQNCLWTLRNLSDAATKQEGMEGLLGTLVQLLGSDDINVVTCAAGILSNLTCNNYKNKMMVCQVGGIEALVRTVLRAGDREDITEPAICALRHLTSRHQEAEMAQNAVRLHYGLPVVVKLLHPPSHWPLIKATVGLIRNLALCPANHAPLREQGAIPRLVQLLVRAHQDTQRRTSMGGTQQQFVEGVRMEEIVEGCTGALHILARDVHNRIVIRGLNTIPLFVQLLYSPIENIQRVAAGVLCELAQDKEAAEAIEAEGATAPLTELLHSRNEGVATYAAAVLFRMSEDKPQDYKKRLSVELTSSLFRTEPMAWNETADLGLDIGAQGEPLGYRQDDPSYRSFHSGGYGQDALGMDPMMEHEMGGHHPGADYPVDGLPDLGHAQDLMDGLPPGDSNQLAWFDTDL
- method: Alphascreen binding assay (beta-catenin / biotin-TCF4 10-53)
Give bare numbers, as −log10 of the molar value.

compound	pEC50
CC(=O)N[C@@H](C)C(=O)N[C@@H](CC(=O)O)C(=O)N[C@@H](C)C(=O)N[C@]1(C)CCN(C)C(=O)OCC=CCCCCC[C@@](C)(C(=O)N[C@@H](Cc2ccccc2)C(=O)N[C@@H](Cc2c[nH]c3ccccc23)C(=O)N[C@@H](Cc2c[nH]cn2)C(N)=O)NC(=O)[C@H](CCC(N)=O)NC(=O)[C@H](Cc2ccccc2)NC(=O)[C@H](C)NC(=O)[C@H](C)NC(=O)[C@H](CCC(=O)O)NC(=O)[C@H](CC(=O)O)NC1=O	5.38

Hi, could you look up pEC50 for each item in my list?
1. CC(=O)N1CCC[C@]12CC=CCCCC1(CCCC=CCCCCCC[C@@](C)(C(=O)N[C@@H](Cc3ccc4ccccc4c3)C(=O)N[C@@H](Cc3c[nH]c4ccccc34)C(=O)N[C@@H](CCC(N)=O)C(N)=O)NC(=O)[C@H](C(C)C)NC(=O)[C@H](Cc3ccccc3)NC(=O)[C@H](C)NC(=O)[C@H](C)NC(=O)[C@H](CC(=O)O)NC(=O)[C@H](CC(=O)O)NC1=O)NC(=O)[C@H](C)NC(=O)[C@H](CC(=O)O)NC2=O (some centres unmarked) [I-278]
2. CC[C@H](C)[C@@H]1NC(=O)[C@H](CC(=O)O)NC(=O)[C@]2(CC=CCCCC3(CCCC=CCCCCCC[C@@](C)(C(=O)N[C@@H](Cc4ccccc4)C(=O)N[C@@H](Cc4c[nH]c5ccccc45)C(=O)N[C@@H](CCC(N)=O)C(N)=O)NC(=O)[C@H](CCC(N)=O)NC(=O)[C@H](Cc4ccccc4)NC(=O)[C@H](C)NC(=O)[C@H](C)NC(=O)[C@H](CCC(=O)O)NC(=O)[C@H](CC(=O)O)NC3=O)NC1=O)CCCN2C(C)=O (some centres unmarked) [I-181]

1. 5.65
2. 7.29

Can you give me pEC50 for all of these, one by one?
1. CC(=O)N1CCC[C@]12CC=CCCCC1(CCCC=CCCCCCC[C@@](C)(C(=O)N[C@@H](Cc3cccc(C(F)(F)F)c3)C(=O)N[C@@H](Cc3c[nH]c4ccccc34)C(=O)N[C@@H](CCC(N)=O)C(N)=O)NC(=O)[C@H](C(C)C)NC(=O)[C@H](Cc3ccccc3)NC(=O)[C@H](C)NC(=O)[C@H](C)NC(=O)[C@H](CC(=O)O)NC(=O)[C@H](CC(=O)O)NC1=O)NC(=O)[C@H](C)NC(=O)[C@H](CC(=O)O)NC2=O (some centres unmarked) [I-248]
2. CC(=O)N1CCC[C@]12CC=CCCCC1(CCCC=CCCCCCC[C@@](C)(C(=O)N[C@@H](Cc3ccccc3)C(=O)N[C@@H](Cc3c[nH]c4ccccc34)C(=O)N[C@@H](CCC(N)=O)C(N)=O)NC(=O)[C@H](C(C)C)NC(=O)[C@H](Cc3ccccc3)NC(=O)[C@H](C)NC(=O)[C@H](C)NC(=O)[C@H](Cc3cccc(C(F)(F)F)c3)NC(=O)[C@H](CC(=O)O)NC1=O)NC(=O)[C@H](C)NC(=O)[C@H](CC(=O)O)NC2=O (some centres unmarked)

5.55
5.53

###

- studyTarget: full-length beta-Catenin (Uniprot ID P35222) (Homo sapiens, UniProt P35222)
- Construct: 10 nM full-length beta-Catenin (Uniprot ID P35222)
- Sequence (P35222 whole entry): as above
- method: Fluorescence polarization IC50 (beta-catenin / 5FAM-TCF4 10-53 competition)
- Assay type: binding
- measurementContext: fluorescence polarization, beta-catenin; read-out: FP EC50
assayMetric: IC50 (µM)
One number for each entry, in µM.

compound	resultUnits	IC50
CC[C@H](C)[C@@H]1NC(=O)[C@H](CC(=O)O)NC(=O)[C@]2(CC=CCCCC3(CCCC=CCCCCCC[C@@](C)(C(=O)N[C@@H](Cc4ccccc4)C(=O)N[C@@H](Cc4c[nH]c5ccccc45)C(=O)N[C@@H](Cc4c[nH]cn4)C(N)=O)NC(=O)[C@H](C(C)C)NC(=O)[C@H](Cc4ccccc4)NC(=O)[C@H](C)NC(=O)[C@H](C)NC(=O)[C@H](CCC(=O)O)NC(=O)[C@H](CC(=O)O)NC3=O)NC1=O)CCCN2C(C)=O (some centres unmarked) [I-176]	µM	1.99

Lab note: next compound to report on.
Enter reported IC50 observed with full-length beta-Catenin (Uniprot ID P35222) (Homo sapiens, UniProt P35222) for CC(=O)N1CCC[C@]12CC=CCCCC1(CCCC=CCCCCCC[C@@](C)(C(=O)N[C@@H](Cc3ccccc3)C(=O)N[C@@H](Cc3c[nH]c4ccccc34)C(=O)N[C@@H](CCC(N)=O)C(N)=O)NC(=O)[C@H](C)NC(=O)[C@H](Cc3ccccc3)NC(=O)[C@H](C)NC(=O)[C@H](C)NC(=O)[C@H](CC(=O)O)NC(=O)[C@H](CC(=O)O)NC1=O)NC(=O)[C@H](C)NC(=O)[C@H](CC(=O)O)NC2=O (some centres unmarked) [I-287]
4.95

###

- studyTarget: full-length beta-Catenin (Uniprot ID P35222) (Homo sapiens, UniProt P35222)
- Construct: 10 nM full-length beta-Catenin (Uniprot ID P35222)
- method: Fluorescence polarization IC50 (beta-catenin / 5FAM-TCF4 10-53 competition)
- Format: binding
- measurementContext: read-out: beta-Catenin FP IC50
Please go through the items and note down their log10 IC50.
Parameter value (number): base-10 log of IC50 in nM.

Worked cases, answers included:
compound	studyTarget	assayMetric	recordedValue
CC(=O)N1CCC[C@]12CC=CCCCC1(CCCC=CCCCOC(=O)N3CC[C@@](C(=O)N[C@@H](Cc4ccccc4Cl)C(=O)N[C@@H](Cc4csc5ccccc45)C(=O)N[C@@H](CCC(N)=O)C(N)=O)(C3)NC(=O)[C@H](CC(N)=O)NC(=O)[C@H](Cc3ccccc3)NC(=O)[C@H](C)NC(=O)[C@H](CCCCN)NC(=O)[C@H](CN(CC(=O)O)CC(F)(F)F)NC(=O)[C@H](CC(=O)O)NC1=O)NC(=O)[C@H](CC(C)(C)C)NC(=O)[C@H](CC(=O)O)NC2=O (stereo partly drawn)	full-length beta-Catenin (Uniprot ID P35222) (Homo sapiens, UniProt P35222)	log10 IC50	0.70
CC(=O)N1CCC[C@]12CC=CCCCC1(CCCC=CCCCOC(=O)N3CC[C@@](C(=O)N[C@@H](Cc4ccsc4)C(=O)N[C@@H](Cc4csc5ccccc45)C(=O)N[C@@H](CC(C)C)C(N)=O)(C3)NC(=O)[C@H](CC(N)=O)NC(=O)[C@H](Cc3ccccc3)NC(=O)[C@H](C)NC(=O)[C@H](C)NC(=O)[C@H](CN(CC(=O)O)CC(F)(F)F)NC(=O)[C@H](CC(=O)O)NC1=O)NC(=O)[C@H](CC(C)(C)C)NC(=O)[C@H](CC(=O)O)NC2=O (stereo partly drawn) [I-947]	full-length beta-Catenin (Uniprot ID P35222) (Homo sapiens, UniProt P35222)	log10 IC50	3.02
CC(=O)N1CCC[C@]12CC=CCCCC1(CCCC=CCCCCCC[C@@](C)(C(=O)N[C@@H](Cc3ccccc3)C(=O)N[C@@H](Cc3csc4ccccc34)C(=O)N[C@@H](C(N)=O)[C@H](C)O)NC(=O)[C@H](CC(N)=O)NC(=O)[C@H](Cc3ccccc3)NC(=O)[C@H](C)NC(=O)[C@H](C)NC(=O)[C@H](CCC(=O)O)NC(=O)[C@H](CC(=O)O)NC1=O)NC(=O)[C@H](CC(C)C)NC(=O)[C@H](CC(=O)O)NC2=O (stereo partly drawn) [I-755]	full-length beta-Catenin (Uniprot ID P35222) (Homo sapiens, UniProt P35222)	log10 IC50	1.94
CC(=O)N1CCC[C@]12CC=CCCCC1(CCCC=CCCCOC(=O)N3CC[C@@](C(=O)N[C@@H](Cc4ccsc4)C(=O)N[C@@H](Cc4csc5ccccc45)C(=O)N[C@@H](CC(N)=O)C(=O)N[C@@H](C)C(N)=O)(C3)NC(=O)[C@H](CC(N)=O)NC(=O)[C@H](Cc3ccccc3)NC(=O)[C@H](C)NC(=O)[C@H](C)NC(=O)[C@H](CC(=O)O)NC(=O)[C@H](CC(=O)O)NC1=O)NC(=O)[C@H](CC(C)(C)C)NC(=O)[C@H](CC(=O)O)NC2=O (stereo partly drawn)	full-length beta-Catenin (Uniprot ID P35222) (Homo sapiens, UniProt P35222)	log10 IC50	0.70
CC(=O)N1CCC[C@]12CC=CCCCC1(CCCC=CCCCOC(=O)N3CC[C@@](C(=O)N[C@@H](Cc4ccsc4)C(=O)N[C@@H](Cc4csc5ccccc45)C(=O)N[C@H](C(N)=O)[C@@H](C)O)(C3)NC(=O)[C@H](CC(N)=O)NC(=O)[C@H](Cc3ccccc3)NC(=O)[C@H](C)NC(=O)[C@H](C)NC(=O)[C@H](CC(=O)O)NC(=O)[C@H](CC(=O)O)NC1=O)NC(=O)[C@H](CC(C)(C)C)NC(=O)[C@H](CC(=O)O)NC2=O (stereo partly drawn)	full-length beta-Catenin (Uniprot ID P35222) (Homo sapiens, UniProt P35222)	log10 IC50	0.85
CC(=O)N1CCC[C@]12CC=CCCCC1(CCCC=CCCCOC(=O)N3CC[C@@](C(=O)N[C@@H](Cc4ccsc4)C(=O)N[C@@H](Cc4csc5ccccc45)C(=O)N[C@@H](Cc4c[nH]cn4)C(N)=O)(C3)NC(=O)[C@H](CCC(N)=O)NC(=O)[C@H](Cc3ccccc3)NC(=O)[C@H](C)NC(=O)[C@H](C)NC(=O)[C@H](CC(=O)O)NC(=O)[C@H](CC(=O)O)NC1=O)NC(=O)[C@H](CC(C)(C)C)NC(=O)[C@H](CC(=O)O)NC2=O (stereo partly drawn) [I-772]	full-length beta-Catenin (Uniprot ID P35222) (Homo sapiens, UniProt P35222)	log10 IC50	0.85

// batch mode: one log10 IC50 value per listed entry
1. CC(=O)N1CCC[C@]12CC=CCCCC1(CCCC=CCCCOC(=O)N3CC[C@@](C(=O)N[C@@H](Cc4ccsc4)C(=O)N[C@@H](Cc4csc5ccccc45)C(=O)N[C@@H](CCC(N)=O)C(=O)N[C@H](C)C(N)=O)(C3)NC(=O)[C@H](CC(N)=O)NC(=O)[C@H](Cc3ccccc3)NC(=O)[C@H](C)NC(=O)[C@H](C)NC(=O)[C@H](CC(=O)O)NC(=O)[C@H](CC(=O)O)NC1=O)NC(=O)[C@H](CC(C)(C)C)NC(=O)[C@H](CC(=O)O)NC2=O (stereo partly drawn)
2. CC(=O)N1CCC[C@]12CC=CCCCC1(CCCC=CCCCOC(=O)N3CC[C@@](C(=O)N[C@@H](Cc4ccccc4Cl)C(=O)N[C@@H](Cc4csc5ccccc45)C(=O)N[C@@H](C(N)=O)[C@H](C)O)(C3)NC(=O)[C@H](CC(N)=O)NC(=O)[C@H](Cc3ccccc3)NC(=O)[C@H](C)NC(=O)[C@H](C)NC(=O)[C@H](CC(=O)O)NC(=O)[C@H](CC(=O)O)NC1=O)NC(=O)[C@H](CC(C)(C)C)NC(=O)[C@H](CCC(=O)O)NC2=O (stereo partly drawn)

0.78
2.92

Item CC(=O)N1CCC[C@]12CC=CCCCC1(CCCC=CCCCOC(=O)N3CC[C@@](C(=O)N[C@@H](Cc4ccccc4Cl)C(=O)N[C@@H](Cc4csc5ccccc45)C(=O)N[C@@H](CO)C(N)=O)(C3)NC(=O)[C@H](Cc3ccccc3)NC(=O)[C@H](Cc3ccccc3)NC(=O)[C@H](C)NC(=O)[C@H](C)NC(=O)[C@H](CN(CC(=O)O)CC(F)(F)F)NC(=O)[C@H](CC(=O)O)NC1=O)NC(=O)[C@H](CC(C)(C)C)NC(=O)[C@H](CC(=O)O)NC2=O (stereo partly drawn) has what recorded log10 IC50?
1.61
